Overview of reported Ki across a group of compounds:
# tested-on: STAT6 protein (Homo sapiens, UniProt P42226)
# Sequence (P42226 whole entry): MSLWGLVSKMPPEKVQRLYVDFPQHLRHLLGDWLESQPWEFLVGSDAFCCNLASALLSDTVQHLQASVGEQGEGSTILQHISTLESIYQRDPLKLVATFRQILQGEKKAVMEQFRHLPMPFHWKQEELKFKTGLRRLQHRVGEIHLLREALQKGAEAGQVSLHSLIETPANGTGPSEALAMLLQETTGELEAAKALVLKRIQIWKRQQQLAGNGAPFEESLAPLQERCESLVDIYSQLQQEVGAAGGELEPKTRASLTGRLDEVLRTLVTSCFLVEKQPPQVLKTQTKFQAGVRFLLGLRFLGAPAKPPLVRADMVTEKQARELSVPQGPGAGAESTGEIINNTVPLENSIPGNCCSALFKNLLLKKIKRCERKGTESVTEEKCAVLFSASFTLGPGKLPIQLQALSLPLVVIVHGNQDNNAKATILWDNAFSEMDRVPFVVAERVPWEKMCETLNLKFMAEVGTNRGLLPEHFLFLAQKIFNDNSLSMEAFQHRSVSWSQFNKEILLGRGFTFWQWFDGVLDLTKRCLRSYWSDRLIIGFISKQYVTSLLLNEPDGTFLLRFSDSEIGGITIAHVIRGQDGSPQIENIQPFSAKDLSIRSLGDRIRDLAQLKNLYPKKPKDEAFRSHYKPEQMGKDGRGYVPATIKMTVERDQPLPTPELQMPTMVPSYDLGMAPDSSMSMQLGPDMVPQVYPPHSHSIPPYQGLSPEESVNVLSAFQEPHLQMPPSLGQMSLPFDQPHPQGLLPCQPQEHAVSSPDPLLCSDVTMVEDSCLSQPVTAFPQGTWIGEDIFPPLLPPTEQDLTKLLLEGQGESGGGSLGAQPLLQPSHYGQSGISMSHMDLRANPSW
# test-method-notes: Fluorescence polarization (FP) binding assay, STAT6
# condition-info: FP competition, 5 nM fluorescein-labeled tracer, 200 nM protein, PBS pH7.4; read-out: Binding STAT6
measured-parameter: Ki

>>> observed_value("CC(C)(C)[C@H](NC(=O)c1cc2cc(C(F)(F)P(=O)(O)O)ccc2s1)C(=O)N1CCC[C@H]1C(=O)N1CCOC(c2ccc(F)cc2)C1 (stereo partly drawn)")
"0.1 to 1 µM"
>>> observed_value("CC(=O)N1CC[C@H]2CC[C@@H](C(=O)Nc3ccc(I)cc3)N2C(=O)[C@@H](NC(=O)/C=C/c2ccc(C(F)(F)P(=O)(O)O)cc2)C1")
"1 to 10 µM"
>>> observed_value("CC(C)(C)[C@H](NC(=O)c1cc2cc(C(F)(F)P(=O)(O)O)ccc2s1)C(=O)N1C[C@@H](OCC(=O)O)C[C@H]1C(=O)N(CCC(=O)O)c1ccc(Br)cc1")
"0.1 to 1 µM"
